Attribute: T/C
- Tested on: P388 leukemia ip, CD2F1 mice, survival T/C
- test: NCI In Vivo Anticancer Drug Screen. Data for tumor model P388 Leukemia (intraperitoneal) in CD2F1 (CDF1) mice
- details: endpoint: median survival time; dose: 200.0 mg/kg/injection; schedule: Q01DX005 (ip); vehicle: saline with Tween-80; higher = longer survival
Toxic doses and inconclusive results are not listed.
assay metric: T/C

>>> value_reported("O=[N+]([O-])c1cccc(/C=C/S(=O)(=O)Cc2ccccc2)c1")
"92 % of control"
>>> value_reported("COC(=O)N1C=Cc2ccccc2C1(C#N)C(=S)SC (stereo unspecified)")
"91 % of control"
>>> value_reported("COc1c2occc2c(N=Cc2ccc([N+](=O)[O-])cc2)c2ccc(=O)oc12")
"98 % of control"
>>> value_reported("C=C(c1ccc2nc(NC(=O)OC)[nH]c2c1)c1cccs1")
"100 % of control"
>>> value_reported("CN(Cc1ccco1)NC(=O)C(=O)NCc1ccco1")
"88 % of control"
>>> value_reported("CCOC(=O)COc1ccc(CC)cc1Cc1ccc(OC)cc1")
"111 % of control"
